test: Pharmacokinetics after intravenous infusion in rats, HPBCD formulation; details: male, Sprague-Dawley, rat, plasma, iv, 5 mg/kg, AUC, 1-Hour Infusion
Measured attribute: AUC (ng·h/mL)
Output spec: scalar in ng·h/mL, unitless text.

Briefly, AUC measured for CC1(C)CCC2=C(O1)c1ccccc1C(=O)C2=O : 1280

----------
Assay: Pharmacokinetic data from toxicology study in dogs, one-hour intravenous infusion
Type: in vivo
Conditions: both sexes, dog, plasma, iv; 30 mg/kg, 60 min infusion
Method: In this study, two dogs (one male, one female) were administered β-lapachone intravenously in the HPBCD formulation over one hour. The animals received escalating doses of 5, 15, 30 and 45 mg/kg, with three to four days between doses. The mean response of the two dogs is shown at each dose level. […] Doses up to and including 30 mg/kg produced no toxicity.
Measured attribute: Cmax (ng/mL)
Report the value in ng/mL with no unit label.

Query CC1(C)CCC2=C(O1)c1ccccc1C(=O)C2=O yields Cmax of 1480
